# system-under-test: T1, murine CXCR5 (murine, UniProt Q04683 1-374)
# T1 construct: whole, on cells; Endogenous receptor on mouse spleen cells cultured with LPS
# T1 sequence (looked up): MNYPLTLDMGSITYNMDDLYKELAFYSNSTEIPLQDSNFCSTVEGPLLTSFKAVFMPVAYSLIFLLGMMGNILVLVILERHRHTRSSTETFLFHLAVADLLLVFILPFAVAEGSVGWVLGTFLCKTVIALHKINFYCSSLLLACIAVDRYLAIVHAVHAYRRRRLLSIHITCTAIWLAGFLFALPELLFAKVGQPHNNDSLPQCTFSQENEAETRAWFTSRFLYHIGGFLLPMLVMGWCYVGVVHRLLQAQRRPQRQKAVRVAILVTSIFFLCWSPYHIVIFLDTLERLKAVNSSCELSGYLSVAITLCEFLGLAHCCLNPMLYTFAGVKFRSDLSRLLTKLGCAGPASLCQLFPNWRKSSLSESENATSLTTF
# test-name: flow cytometry on LPS-cultured mouse spleen cells, IgG titration
# Method: In this example, mouse spleen cells were harvested from either C57B1/6 or athymic nu/nu mice. Cells were cultured at 2×10⁶ per ml with LPS at 10 micrograms per ml in RPMI+10% FCS for up to 4 days at 37° C. in 5% CO2. […] The cells were resuspended in a final volume of 30 μl FACS Buffer and analyzed using the Intellicyt Flow Cytometer. […]
Answer each item with its documented pEC50.
Give bare numbers, as −log10 of the molar value.

Example binders with recorded pEC50:
[
  {
    "binder": "13F9 (antibody, V domains shown, tested as human IgG) VH: EVQLLESGGGLIQPGGSLRLSCAASGFIFSRYGMHWVRQAPGKGLEWVAVTSYDGRSKYYTDSVQGRFTISRDNSKNTLDLQMNSLRAEDTAVYYCARLHTVGPWHFDLWGRGTLVTVSS VL: SYELTQPRSVSGSPGQSVTISCTGTSSDVGGYNYVSWYQQHPGKVPKLMIYEVSNRPSGVSNRFSGSKSGNAASLTISGLQAEDEADYYCSSYTSSSTLVFGGGTKLTVL",
    "pEC50": 7.64
  },
  {
    "binder": "14E5 (antibody, V domains shown, tested as human IgG) VH: EVQLVESGGGVVQPGRSLRLSCAASGFTFSSYGMHWVRQAPGKGLEWVAVISYDGSNKYYADSVKGRFTISRDNSKNTLYLQMNSLRAEDTAVYYCAKVYSRGSDYWGQGTLVTVSS VL: QSVLTQPASVSGSPGQSITISCTGTSSDVGGYNYVSWYQQHPGKAPKLLIYDVSRRPSGISSRFSGSKSGNTASLTISGLQTEDDGDYYCLSYTTSRAVVFGGGTKLTVL",
    "pEC50": 8.55
  },
  {
    "binder": "13E10 (antibody, V domains shown, tested as human IgG) VH: EVQLVQSGAEVKKPGASLKISCRASGYTFTRNYIHWVRQAPGQGLEWLGIINPNGGSTRYSQKFQGRVTMTRDTSTRTVYMELSSLRSEDTAVYYCAREAPKYCSGSSCYSGGVDYWGQGTLVTVSS VL: QPVLTQPLSASGTPGQRVTISCSGSSSNIGSNYVYWYQQLPGTAPKLLIYRNYQRPSGVPDRFSGSTSGTSASLAISGLRSEDEADYHCAAWDGSMRGWVFGGGTKLTVL",
    "pEC50": 7.60
  },
  {
    "binder": "15G11 (antibody, V domains shown, tested as human IgG) VH: QVQLVQSGGGVVQPGGSLRLSCAASGFAFNRYGMHWVRQAPGQGLEWVAVISYDGSLKYYADSVKGRFTISRDNSNNTLYLQMNSLSADDTAVYYCAKGGAALDSWGQGTLVTVSS VL: DVVMTQSPLSSPVTLGQPASISCRSSQSLVHSDGTTYLSWLQQRPGQPPRLLIYKISNRFSGVPDRFSGSGAGTDFTLKISRVEAEDVGVYYCMQTTQFPPMFGQGTKVEIK",
    "pEC50": 8.32
  }
]

Turning now to a further record.
stdin: I would be grateful if you could share the reported pEC50 for 12G10 (antibody, V domains shown, tested as human IgG) VH: EVQLVESGGGVVQPGRSLRLSCAASGFTFSSYAMHWVRQAPGKGLEWVAVISYDGSNKYYADSVKGRFTISRDNSKNTLYLQMNSLRAEDTAVYYCARIAVAGTHFDYWGQGTLVTVSS VL: SYELMQPPSVSGTPGQRVTISCSGSTSNVGSNTVNWYRQFPGTAPKLLIYANNQRPSGVPDRFSGSKSGTSASLAISGLQSENEADYYCAAWDDSLNGYVFGTGTKLTVL .
stdout: 8.60
